- Measurement target: DRB1*0301 (Homo sapiens, UniProt P01903+P01911, A100K/A102G/A103R/A169T/F55Y/I96L/K41T/L162R/M171V/P40S/Q125H/Q178H/Q39Y/R42S/S66N/T106N/T262R/W38E/Y61H)
- Sequence (P01903 26-254 limits assumed, other chains not shown): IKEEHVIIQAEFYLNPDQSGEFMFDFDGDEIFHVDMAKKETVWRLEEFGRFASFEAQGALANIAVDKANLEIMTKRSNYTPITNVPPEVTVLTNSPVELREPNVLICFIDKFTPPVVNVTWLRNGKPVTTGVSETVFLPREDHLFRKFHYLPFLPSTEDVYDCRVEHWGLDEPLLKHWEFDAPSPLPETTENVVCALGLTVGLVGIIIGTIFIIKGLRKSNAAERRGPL
- Assay summary: biochemical
Reported metric: IC50 (nM)
Note: unit nM is implicit; provide only the numeric part.

Input: # lookup: IC50 of CC[C@H](C)[C@H](NC(=O)CNC(=O)[C@H](CCC(=O)O)NC(=O)[C@H](Cc1c[nH]cn1)NC(=O)[C@@H](NC(=O)[C@H](Cc1ccc(O)cc1)NC(=O)[C@H](Cc1ccc(O)cc1)NC(=O)[C@H](CC(C)C)NC(=O)CN)C(C)C)C(=O)N[C@@H](CCCNC(=N)N)C(=O)N[C@H](C(=O)N[C@@H](Cc1ccc(O)cc1)C(=O)N[C@@H](Cc1ccccc1)C(=O)N[C@H](C(=O)N[C@@H](CCC(N)=O)C(=O)O)C(C)C)[C@@H](C)O [Peptide 90.0171]
Output: 689

###

Recorded IC50 by entry
- Measurement target: A*2902 (Homo sapiens, UniProt P04439, A270S/D101N/D185E/E176V/E277Q/E87Q/F33T/G231S/H175R/I121M/I218V/I322F/K168Q/L300P/L318F/M331R/P208A/P217A/Q86L/T323A/T345S/V100A/V358M)
- Assay summary: biochemical
- Format: binding
No end group written: not given here.
Note: unit nM is implicit; provide only the numeric part.

Below are worked cases with known answers.
| Input sequence | Units label | IC50 |
| --- | --- | --- |
| VTDCPYNY [Peptide 9012.0106] | nM | 1450 |
| GNEKTYFKY [Peptide 86.0160] | nM | 319 |
| EVDYVGLYY [Peptide 1580.33] | nM | 4.5 |
| ETDLDMLRHLY [Peptide 9012.0172] | nM | 1500 |
| KTGILTVTY [Peptide 86.0146] | nM | 3390 |

Input: # lookup: IC50 of TTSPSYTY [Peptide 9012.0100]
Output: 213

Input: # lookup: IC50 of RTDPVTLDVLY [Peptide 9012.0168]
Output: 1310

###

- Measurement target: A*0202 (Homo sapiens, UniProt P04439, D140Y/D185E/D98H/E176V/E277Q/G131W/G231S/I119L/I121R/I166T/I218V/L180W/L300P/L318F/N151K/N90K/P208A/P217A/Q67R/Q86G/Q94H/R138H/R169H/T345S)
- Assay summary: biochemical
- Type: binding
No end group written: not given here.
Reported metric: pIC50
Units for pIC50: none; it is -log10 of a concentration expressed in mol/L.

| Input sequence | Reading |
| --- | --- |
| RILQQLLFV [Peptide 1525.09] | 6.31 |
| TVNNSGSYV [Peptide 9013.0064] | 6.51 |
| GLNRTTVTV [Peptide 9013.0066] | 8.00 |
| FLQGSVICFV [Peptide 1578.05] | 8.46 |
| IQNDTGFYTV [Peptide 9013.0149] | 7.70 |

Input: # lookup: pIC50 of KLFCADPAL [Peptide 1578.50]
Output: 8.17

Input: # lookup: pIC50 of VLEGKEVLLLV [Peptide 9013.0273]
Output: 7.49

Input: # lookup: pIC50 of QLSNGNRTLTL [Peptide 9013.0292]
Output: 7.10

Input: # lookup: pIC50 of ILYAHIQCL [Peptide 1578.08]
Output: 8.03
